Data provenance is patent US20240101602A1.

Non-standard residues stand in square brackets, D forms with d. Residues, ends and D or L forms follow the SMILES beside them. *: point of attachment. Octanoyl = CCCCCCCC(=O)*; Orn = NCCC[C@H](N)C(=O)O; Hexanoyl = CCCCCC(=O)*; Butyryl = CCCC(=O)*
// Klebsiella pneumonia NTUH-K2044 MBC records
Please reply with the bare figure in µg/mL and do not write the unit itself.

[[record]]
compound = "CC(=O)N[C@@H](Cc1c[nH]c2ccccc12)C(=O)N[C@@H](CCCN)C(=O)N[C@@H](CCCN)C(=O)N[C@@H](CC(C)C)C(=O)N[C@@H](CCCN)C(=O)N[C@@H](CCCN)C(=O)N[C@@H](CC(C)C)C(=O)N[C@@H](CC(C)C)C(=O)N[C@@H](CCCN)C(=O)N[C@@H](CCCN)C(=O)N[C@@H](CC(C)C)C(=O)N[C@@H](CCCN)C(=O)N[C@@H](CCCN)C(=O)N[C@@H](CC(C)C)C(N)=O [pepO2, Ac-WOOLOOLLOOLOOL-NH2] (Ac-W[Orn][Orn]L[Orn][Orn]LL[Orn][Orn]L[Orn][Orn]L-NH2)"
study_system = "Klebsiella pneumonia NTUH-K2044"
measurement_label = "MBC"
test_value = 32


## Task Give MBC (Klebsiella pneumonia NTUH-K2044) of the following compound: CCCC(=O)N[C@@H](Cc1c[nH]c2ccccc12)C(=O)N[C@@H](CCCCN)C(=O)N[C@@H](CCCCN)C(=O)N[C@@H](CC(C)C)C(=O)N[C@@H](CCCCN)C(=O)N[C@@H](CCCCN)C(=O)N[C@@H](CC(C)C)C(=O)N[C@@H](CC(C)C)C(=O)N[C@@H](CCCCN)C(=O)N[C@@H](CCCCN)C(=O)N[C@@H](CC(C)C)C(N)=O [pepD3B] (Butyryl-WKKLKKLLKKL-NH2)
## Result 16

## Task Param readout= MBC; system= Klebsiella pneumonia NTUH-K2044; entry= CCCCCCCC(=O)N[C@@H](Cc1c[nH]c2ccccc12)C(=O)N[C@@H](CCCCN)C(=O)N[C@@H](CCCCN)C(=O)N[C@@H](CC(C)C)C(=O)N[C@@H](CCCCN)C(=O)N[C@@H](CCCCN)C(=O)N[C@@H](CC(C)C)C(=O)N[C@@H](CC(C)C)C(=O)N[C@@H](CCCCN)C(=O)N[C@@H](CCCCN)C(=O)N[C@@H](CC(C)C)C(N)=O [pepD3O] (Octanoyl-WKKLKKLLKKL-NH2) ; returns value.
## Result 16

## Task Item CC(=O)N[C@@H](Cc1c[nH]c2ccccc12)C(=O)N[C@H](CCCCN)C(=O)N[C@H](CCCCN)C(=O)N[C@H](CC(C)C)C(=O)N[C@H](CCCCN)C(=O)N[C@H](CCCCN)C(=O)N[C@H](CC(C)C)C(=O)N[C@H](CC(C)C)C(=O)N[C@H](CCCCN)C(=O)N[C@H](CCCCN)C(=O)N[C@H](CC(C)C)C(=O)N[C@H](CCCCN)C(=O)N[C@H](CCCCN)C(=O)N[C@H](CC(C)C)C(N)=O [pepdD2, Ac-Wkklkkllkklkkl-NH2] (Ac-W[dK][dK][dL][dK][dK][dL][dL][dK][dK][dL][dK][dK][dL]-NH2) with Klebsiella pneumonia NTUH-K2044 - MBC?
## Result 32

## Task Observed MBC on Klebsiella pneumonia NTUH-K2044 for CCCCCC(=O)N[C@@H](Cc1c[nH]c2ccccc12)C(=O)N[C@@H](CCCCN)C(=O)N[C@@H](CCCCN)C(=O)N[C@@H](CC(C)C)C(=O)N[C@@H](CCCCN)C(=O)N[C@@H](CCCCN)C(=O)N[C@@H](CC(C)C)C(=O)N[C@@H](CC(C)C)C(=O)N[C@@H](CCCCN)C(=O)N[C@@H](CCCCN)C(=O)N[C@@H](CC(C)C)C(N)=O [pepD3H] (Hexanoyl-WKKLKKLLKKL-NH2) , please.
## Result 16
